Molecular target: T1, HLA-A0201 on the surface of T2 cells (human)
T1 construct: MHC class I molecule on TAP-deficient T2 cells
Experiment: T2 cell peptide loading, 100 µM peptide, anti-HLA-A*02:01 FITC flow cytometry
Each item that follows carries a reported FI (fluorescence index).
Reply with just the number.

Before answering, review these 2 worked examples.
BINDER	ASSAY_READOUT	RECORDED_RESULT
FILDGSYSV [wild-type polypeptide (depicted in FILDGSYSV, SEQ ID NO:7)]	FI (fluorescence index)	1.59
FMLDGLYSL [mutant polypeptide's variant (depicted in FMLDGLYSL, SEQ ID NO:5)]	FI (fluorescence index)	2.14

Attention now shifts to the item below.
# input binder: FILDGLYSV [mutant polypeptide (depicted in FILDGLYSV, SEQ ID NO:1)] ; wanted: its FI (fluorescence index)
1.92
